# ASSAY SYSTEM: CD47 on the red cell surface (Homo sapiens (Human), UniProt Q08722 19-323)
# ASSAY OVERVIEW: flow cytometry on fixed red cells, antibody 10 µg/mL
Quick reference: MFI of the listed items.
Value expressed in MFI; do not type the unit.

Solved entries:
{"BINDER": "hz3F10-4.1 (antibody, human IgG4 S228P, kappa, V domains shown, humanized 3F10, full-length heavy and light chains) VH: QVQLVQSGAEVKKPGSSVKVSCKASGYTFSRYWIEWVRQAPGQGLEWMGEFIPGSDTTNYAQKFQGRVTITADISTSTAYMELSSLRSEDTAVYYCARGGLRRMDYWGQGTLVTVSS VL: DIQMTQSPSSLSASVGDRVTITCRASSSVSSTYLHWYQQKPGKAPKLLIYTTSTLASGVPSRFSGSGSGTSYTLTISSLQPEDFATYYCQQFSESTWTFGQGTKLEIKR", "MFI (MFI)": 41900}
{"BINDER": "hz3F10-5.1 (antibody, human IgG4 S228P, kappa, V domains shown, humanized 3F10, full-length heavy and light chains) VH: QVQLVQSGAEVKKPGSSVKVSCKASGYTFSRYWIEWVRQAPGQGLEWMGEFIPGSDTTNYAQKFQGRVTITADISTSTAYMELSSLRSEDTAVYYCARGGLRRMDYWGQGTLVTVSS VL: DIQMTQSPSSLSASVGDRVTITCRASSSVSSTYLHWYQQKPGKAPKLWIYTTSTLASGVPSRFSGSGSGTSYTLTISSLQPEDFATYYCQQFSDSTWTFGQGTKLEIKR", "MFI (MFI)": 50600}
{"BINDER": "hz3F10-3.2 (antibody, human IgG4 S228P, kappa, V domains shown, humanized 3F10, full-length heavy and light chains) VH: QVQLVQSGAEVKKPGSSVKVSCKASGYTFSRYWIEWVRQAPGQGLEWMGEFIPGSDTTNYAQKFQGRVTITAEISTNTAYMELSSLRSEDTAVYYCARGGLRRMDYWGQGTLVTVSS VL: DIQMTQSPSSLSASVGDRVTITCRASSSVSSTYLHWYQQKPGKAPKLLIYTTSTLASGVPSRFSGSGSGTSYTLTISSLQPEDFATYYCQQFSDSTWTFGQGTKLEIKR", "MFI (MFI)": 45300}

In plain terms, hz3F10-6.1 (antibody, human IgG4 S228P, kappa, V domains shown, humanized 3F10, full-length heavy and light chains) VH: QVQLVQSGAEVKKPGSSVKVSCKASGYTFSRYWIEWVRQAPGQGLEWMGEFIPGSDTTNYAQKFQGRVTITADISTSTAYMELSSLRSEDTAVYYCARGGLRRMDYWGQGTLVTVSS VL: DIQMTQSPSSLSASVGDRVTITCRASSSVSSTYLHWYQQKPGKAPKLWIYTTSTLASGVPSRFSGSGSGTSYTLTISSLQPEDFATYYCQQFSESTWTFGQGTKLEIKR has a documented MFI of 53000

In plain terms, hz3F10-5.2 (antibody, human IgG4 S228P, kappa, V domains shown, humanized 3F10, full-length heavy and light chains) VH: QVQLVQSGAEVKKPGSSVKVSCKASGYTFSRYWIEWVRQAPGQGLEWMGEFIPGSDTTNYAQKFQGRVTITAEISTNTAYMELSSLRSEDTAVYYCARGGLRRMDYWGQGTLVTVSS VL: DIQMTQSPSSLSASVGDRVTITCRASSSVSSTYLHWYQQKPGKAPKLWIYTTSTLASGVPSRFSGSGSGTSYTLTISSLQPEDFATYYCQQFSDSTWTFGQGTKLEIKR has a documented MFI of 53300

In plain terms, hz3F10-2.1 (antibody, human IgG4 S228P, kappa, V domains shown, humanized 3F10, full-length heavy and light chains) VH: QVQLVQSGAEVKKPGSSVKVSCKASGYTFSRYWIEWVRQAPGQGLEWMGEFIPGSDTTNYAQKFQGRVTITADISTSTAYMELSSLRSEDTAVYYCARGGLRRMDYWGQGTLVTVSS VL: DIQMTQSPSSLSASVGDRVTITCRASSSVSSTYLHWYQQKPGKAPKLLIYTTSTLASGVPSRFSGSGSGTDFTLTISSLQPEDFATYYCQQFSESTWTFGQGTKLEIKR has a documented MFI of 53200

In plain terms, hz3F10-2.2 (antibody, human IgG4 S228P, kappa, V domains shown, humanized 3F10, full-length heavy and light chains) VH: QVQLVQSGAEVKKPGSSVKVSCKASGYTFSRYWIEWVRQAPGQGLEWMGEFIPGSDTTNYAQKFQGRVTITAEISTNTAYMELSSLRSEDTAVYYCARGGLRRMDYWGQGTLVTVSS VL: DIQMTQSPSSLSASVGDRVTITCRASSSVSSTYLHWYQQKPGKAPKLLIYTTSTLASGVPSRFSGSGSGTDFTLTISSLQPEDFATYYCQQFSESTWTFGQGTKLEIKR has a documented MFI of 56100

In plain terms, hz3F10-4.2 (antibody, human IgG4 S228P, kappa, V domains shown, humanized 3F10, full-length heavy and light chains) VH: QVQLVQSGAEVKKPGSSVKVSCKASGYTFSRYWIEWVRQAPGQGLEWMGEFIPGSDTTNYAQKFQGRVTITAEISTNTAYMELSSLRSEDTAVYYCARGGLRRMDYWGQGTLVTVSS VL: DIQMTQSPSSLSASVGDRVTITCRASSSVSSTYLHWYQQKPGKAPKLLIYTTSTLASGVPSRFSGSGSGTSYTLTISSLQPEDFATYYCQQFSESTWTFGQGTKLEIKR has a documented MFI of 45600

In plain terms, hz3F10-3.1 (antibody, human IgG4 S228P, kappa, V domains shown, humanized 3F10, full-length heavy and light chains) VH: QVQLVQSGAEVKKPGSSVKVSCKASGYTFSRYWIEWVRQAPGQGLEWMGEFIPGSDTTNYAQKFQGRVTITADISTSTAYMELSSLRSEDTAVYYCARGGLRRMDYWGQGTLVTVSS VL: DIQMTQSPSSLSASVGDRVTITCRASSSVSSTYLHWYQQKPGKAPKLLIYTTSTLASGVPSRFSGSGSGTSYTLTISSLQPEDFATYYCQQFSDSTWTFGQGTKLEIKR has a documented MFI of 41400

In plain terms, hz3F10-1.1 (antibody, human IgG4 S228P, kappa, V domains shown, humanized 3F10, full-length heavy and light chains) VH: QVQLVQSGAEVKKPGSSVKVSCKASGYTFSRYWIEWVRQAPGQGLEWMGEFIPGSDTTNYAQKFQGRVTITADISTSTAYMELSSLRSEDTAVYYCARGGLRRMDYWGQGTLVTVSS VL: DIQMTQSPSSLSASVGDRVTITCRASSSVSSTYLHWYQQKPGKAPKLLIYTTSTLASGVPSRFSGSGSGTDFTLTISSLQPEDFATYYCQQFSDSTWTFGQGTKLEIKR has a documented MFI of 50500
